Cited source for all entries: patent US11083725B2

// values below are reported 590 nm absorbance normalized to zero hour (substrate use), 11 hr
- Tested on: NHBE cells
- test_method_notes: Biolog metabolic array: substrate use by NHBE cells with or without CA09 infection
- Type: cell-based, human
- measurement_context: Virus (CA09-infected, MOI 1) NHBE cells, 11 hr

Reference set, count: 4
# compound, observed_value
rows = [
    ("OC[C@H]1O[C@@H](O[C@H]2[C@H](O)[C@@H](O)[C@H](O)O[C@@H]2CO)[C@H](O)[C@@H](O)[C@@H]1O", 4.06),
    ("CC(=O)C(=O)O", 0.61),
    ("OC[C@H]1O[C@H](O[C@H]2O[C@H](CO)[C@@H](O)[C@H](O)[C@H]2O)[C@H](O)[C@@H](O)[C@@H]1O", 3.07),
    ("CC[C@H](O)C(=O)O (racemic) [D,L-a-Hydroxy-Butyric Acid]", 2.21),
]

Note: attention shifts to another entry.
Name the recorded 590 nm absorbance normalized to zero hour (substrate use), 11 hr for "O=C(O)CCC(=O)O" .
3.12

###

// values below are reported 590 nm absorbance normalized to zero hour (substrate use), 8 hr
- Test system: NHBE cells
- test_method_notes: Biolog metabolic array: substrate use by NHBE cells with or without CA09 infection
- Type: cell-based, human
- measurement_context: Control (uninfected) NHBE cells, 8 hr
API doc: respond with a numeric literal and nothing else, no unit.

# compound, tgt, observed_value
data = [
    ("OC[C@H]1O[C@@H](OC[C@H]2OC(O)[C@H](O)[C@@H](O)[C@@H]2O)[C@H](O)[C@@H](O)[C@@H]1O (stereo partly shown) [Gentio-biose]", "NHBE cells", 4.57),
]

Name the recorded 590 nm absorbance normalized to zero hour (substrate use), 8 hr for C[C@@H](O)[C@H](O)[C@H](O)[C@@H](O)C=O [D-Fucose] .
2.49

Name the recorded 590 nm absorbance normalized to zero hour (substrate use), 8 hr for OC[C@@]12OC[C@@H](O1)[C@@H](O)[C@@H](O)[C@@H]2O [Sedoheptulosan] .
0.71

Name the recorded 590 nm absorbance normalized to zero hour (substrate use), 8 hr for OC[C@H]1O[C@H](O[C@H]2[C@H](O)[C@@H](O)[C@H](O)O[C@@H]2CO)[C@H](O)[C@@H](O)[C@@H]1O [Maltose] .
1.68

###

- Tested on: NHBE cells
- test_method_notes: Biolog metabolic array: substrate use by NHBE cells with or without CA09 infection
- Format: cell-based, human
- measurement_context: Control (uninfected) NHBE cells, 8 hr
// values below are reported 590 nm absorbance normalized to zero hour (substrate use), 8 hr
API doc: respond with a numeric literal and nothing else, no unit.

# compound, observed_value
data = [
    ("O=C(CO)[C@@H](O)[C@@H](O)[C@H](O)CO", 0.34),
    ("CO[C@H]1O[C@H](CO)[C@@H](O)[C@H](O)[C@@H]1O [a-Methyl-D-Mannoside]", 2.13),
    ("NCCO", 1.06),
]

Name the recorded 590 nm absorbance normalized to zero hour (substrate use), 8 hr for O=C(O)C(O)C(O)C(=O)O (stereo not drawn) .
2.82

Name the recorded 590 nm absorbance normalized to zero hour (substrate use), 8 hr for "OC[C@H]1O[C@@H](O[C@H]2[C@H](O)[C@@H](O)[C@H](O)O[C@@H]2CO)[C@H](O)[C@@H](O)[C@@H]1O" .
4.59

Name the recorded 590 nm absorbance normalized to zero hour (substrate use), 8 hr for "O=C(O)CCC(=O)O" .
0.96

Name the recorded 590 nm absorbance normalized to zero hour (substrate use), 8 hr for CO[C@@H]1O[C@H](CO)[C@H](O)[C@H](O)[C@H]1O [b-Methyl-D-Galactoside] .
1.24

Name the recorded 590 nm absorbance normalized to zero hour (substrate use), 8 hr for O=P(O)(O)O[C@H]1O[C@H](CO)[C@@H](O)[C@H](O)[C@H]1O [D-Glucose-1-Phosphate] .
1.03

Name the recorded 590 nm absorbance normalized to zero hour (substrate use), 8 hr for "O=C[C@H](O)[C@@H](O)[C@@H](O)CO" .
3.74
